Target: Fyn (UniProt P06241)
Sequence (P06241 whole entry, looked up): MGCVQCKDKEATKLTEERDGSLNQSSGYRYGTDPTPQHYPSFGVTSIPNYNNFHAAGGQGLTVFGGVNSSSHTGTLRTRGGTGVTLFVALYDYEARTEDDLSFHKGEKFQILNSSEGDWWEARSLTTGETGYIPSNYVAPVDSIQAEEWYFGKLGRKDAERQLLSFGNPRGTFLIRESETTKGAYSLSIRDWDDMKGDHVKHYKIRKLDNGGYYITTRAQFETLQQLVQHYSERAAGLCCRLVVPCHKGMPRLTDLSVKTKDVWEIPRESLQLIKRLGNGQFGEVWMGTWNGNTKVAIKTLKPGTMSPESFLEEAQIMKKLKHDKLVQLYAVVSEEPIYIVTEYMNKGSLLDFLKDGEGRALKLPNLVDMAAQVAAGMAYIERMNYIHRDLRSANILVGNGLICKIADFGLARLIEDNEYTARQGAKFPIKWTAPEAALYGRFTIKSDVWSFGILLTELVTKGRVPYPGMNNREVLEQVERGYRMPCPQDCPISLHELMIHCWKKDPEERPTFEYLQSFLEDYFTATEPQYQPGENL
Test: phosphorylation enrichment, bacterial display (enrichment ratio); higher = better substrate or ligand; peptides without Tyr show the background
QUANTITY_MEASURED: phosphorylation enrichment

Would you please look over these solved cases?
SEQUENCE_INPUT	phosphorylation enrichment
ISHVAYLVLGK [TRRAP_Y892_R893L]	0.507
FKDVTYLKEEK [UBE3A_Y127_T129K]	0.514
EKSREYHRLYE [PIK3R1_Y463_D464H]	0.498

Please turn your attention to the following entry.
Query: So what's the measured phosphorylation enrichment for this one? DQNVEYKGTVW [FHL1_Y117]
Reply: 0.496

* * *

Molecular target: MERTK (UniProt Q12866)
Sequence (Q12866 whole entry, looked up): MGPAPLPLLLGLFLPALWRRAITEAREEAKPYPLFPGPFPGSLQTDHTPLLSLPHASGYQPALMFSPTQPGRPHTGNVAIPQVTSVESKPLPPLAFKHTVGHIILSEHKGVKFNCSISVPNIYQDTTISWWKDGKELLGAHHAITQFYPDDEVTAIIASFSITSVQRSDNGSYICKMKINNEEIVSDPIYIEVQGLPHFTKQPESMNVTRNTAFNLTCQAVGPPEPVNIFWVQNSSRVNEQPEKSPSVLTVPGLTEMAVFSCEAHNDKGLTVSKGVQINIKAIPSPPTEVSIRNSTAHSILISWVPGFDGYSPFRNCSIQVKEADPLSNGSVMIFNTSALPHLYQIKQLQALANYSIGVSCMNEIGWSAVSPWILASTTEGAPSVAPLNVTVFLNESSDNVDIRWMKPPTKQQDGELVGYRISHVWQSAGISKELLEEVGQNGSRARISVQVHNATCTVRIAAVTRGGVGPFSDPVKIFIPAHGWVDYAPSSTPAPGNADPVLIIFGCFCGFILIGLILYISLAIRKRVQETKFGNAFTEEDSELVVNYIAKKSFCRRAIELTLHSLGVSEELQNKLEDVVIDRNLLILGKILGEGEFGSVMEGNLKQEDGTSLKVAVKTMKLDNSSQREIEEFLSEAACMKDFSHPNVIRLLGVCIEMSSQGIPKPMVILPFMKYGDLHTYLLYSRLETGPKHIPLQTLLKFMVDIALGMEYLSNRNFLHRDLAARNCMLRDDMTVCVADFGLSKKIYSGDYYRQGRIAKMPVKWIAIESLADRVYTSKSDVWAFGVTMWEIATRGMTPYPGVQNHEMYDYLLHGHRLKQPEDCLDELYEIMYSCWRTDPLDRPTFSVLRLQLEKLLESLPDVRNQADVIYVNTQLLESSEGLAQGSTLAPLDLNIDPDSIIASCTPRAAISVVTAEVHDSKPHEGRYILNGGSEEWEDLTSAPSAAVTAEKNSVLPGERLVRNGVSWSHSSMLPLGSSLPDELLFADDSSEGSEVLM
Assay: phosphorylation enrichment, bacterial display (enrichment ratio); higher = better substrate or ligand; peptides without Tyr show the background
Short version: phosphorylation enrichment at least 0.7 is 1 (yes), less is 0 (no).

SEQUENCE_INPUT	QUALITATIVE_LABEL
HLDRSYSFSFS [PEAR1_Y890_R885H_YF]	1 (yes)

Query: Hi team, for HGDDDYDDPEL [CLNK_Y69_S65G] , is the recorded phosphorylation enrichment at or above 0.7?
Reply: 0 (no)

Query: Hi team, for SVTCPYSPALN [TP53_Y126_T125P] , is the recorded phosphorylation enrichment at or above 0.7?
Reply: 0 (no)

* * *

Target: SHP2-C SH2;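 also: peptide library displayed on the E. coli surface as eCPX fusions, selected cells deep-sequenced, score is each peptide's frequency after selection divided by its frequency in the input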
Experiment: SH2 binding enrichment of the phosphorylated peptide, bacterial display (enrichment ratio); higher = better substrate or ligand; peptides without Tyr show the background
# SH2 binding enrichment listing for each entry below
Hey, just send me the number, nothing else.

SEQUENCE_INPUT	SH2 binding enrichment
KELALYDENWF [RPS19_Y48_P47L]	0.611

Query: So what's the measured SH2 binding enrichment for this one? DSFATYFRRVL [H2BW1_Y84]
Reply: 0.584

Query: So what's the measured SH2 binding enrichment for this one? CTTIFYNFMCN [TP53_Y234_H233Y_YF]
Reply: 1.8

Query: So what's the measured SH2 binding enrichment for this one? VNFGAYINDFN [GLB1_Y488_K493N_YF]
Reply: 0.674

Query: So what's the measured SH2 binding enrichment for this one? LIDSSYLTPTA [GREB1L_Y1063_R1066P]
Reply: 0.595

Query: So what's the measured SH2 binding enrichment for this one? QYQEKYKQMEQ [HCN4_Y531_V534M]
Reply: 0.705

Query: So what's the measured SH2 binding enrichment for this one? ERCAQYKKDGA [ALDOA_Y138]
Reply: 0.623

Query: So what's the measured SH2 binding enrichment for this one? GHRPVYSEDEQ [CHST6_Y362_Y358H]
Reply: 0.736

Query: So what's the measured SH2 binding enrichment for this one? HEKKAYSFCGT [RPS6KA3_Y226]
Reply: 0.729

Query: So what's the measured SH2 binding enrichment for this one? HFPFQYHRQLF [F12_Y53_YF]
Reply: 1.14

Query: So what's the measured SH2 binding enrichment for this one? SRVTQYERNFE [SNX1_Y463_D466N]
Reply: 0.593

Query: So what's the measured SH2 binding enrichment for this one? LRLFSYSTTIR [CYP7B1_Y365_S363F]
Reply: 0.871

Query: So what's the measured SH2 binding enrichment for this one? EAVKNYTDKRG [PBRM1_Y672]
Reply: 0.567

Query: So what's the measured SH2 binding enrichment for this one? PPTFRYERGSR [INPPL1_Y663_YF]
Reply: 0.318

Query: So what's the measured SH2 binding enrichment for this one? FVPSNYVAEDR [FRK_Y104_I100V_YF]
Reply: 0.76

Query: So what's the measured SH2 binding enrichment for this one? FSMGCYEISLG [HMGCL_Y198_YF]
Reply: 0.785

Query: So what's the measured SH2 binding enrichment for this one? EFGEVYKGMLK [EPHA2_Y628]
Reply: 0.838

Query: So what's the measured SH2 binding enrichment for this one? SSVKPYRVFCD [FGB_Y266_YF]
Reply: 1.08

Query: So what's the measured SH2 binding enrichment for this one? PLDVEYFTLQI [TP53_Y327_G325V]
Reply: 0.604

Query: So what's the measured SH2 binding enrichment for this one? IVRSLYEDQED [VHL_Y185_L188Q]
Reply: 0.993

Query: So what's the measured SH2 binding enrichment for this one? KEINDYVEKGT [SERPINA1_Y184_Q180E]
Reply: 0.568

* * *

Biological target: Hck (UniProt P08631)
Sequence (P08631 whole entry, looked up): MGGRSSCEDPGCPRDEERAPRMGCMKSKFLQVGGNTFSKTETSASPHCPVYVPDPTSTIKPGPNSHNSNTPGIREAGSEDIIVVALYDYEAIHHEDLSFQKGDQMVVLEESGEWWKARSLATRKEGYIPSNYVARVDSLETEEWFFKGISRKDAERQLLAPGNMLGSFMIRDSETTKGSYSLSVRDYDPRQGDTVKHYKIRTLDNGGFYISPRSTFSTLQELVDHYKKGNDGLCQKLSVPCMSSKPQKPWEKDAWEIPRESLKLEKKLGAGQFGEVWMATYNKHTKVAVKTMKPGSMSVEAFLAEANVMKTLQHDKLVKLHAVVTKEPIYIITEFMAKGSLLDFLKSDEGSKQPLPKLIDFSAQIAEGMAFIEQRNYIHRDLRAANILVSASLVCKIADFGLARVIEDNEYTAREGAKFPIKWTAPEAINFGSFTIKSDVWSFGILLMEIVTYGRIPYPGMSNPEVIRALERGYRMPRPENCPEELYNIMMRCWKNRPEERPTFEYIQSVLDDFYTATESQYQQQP
Test: phosphorylation enrichment, bacterial display (enrichment ratio); higher = better substrate or ligand; peptides without Tyr show the background
# phosphorylation enrichment listing for each entry below
Hey, just send me the number, nothing else.

Would you please look over these solved cases?
SEQUENCE_INPUT	phosphorylation enrichment
PQGVRYIFTID [DCX_Y103_YF]	0.714
TEYIQYMRRKN [MAX_Y73]	0.7

Please turn your attention to the following entry.
Query: So what's the measured phosphorylation enrichment for this one? AVLALYNSTRD [TGFB1_Y81]
Reply: 0.511

* * *

Molecular target: EPHB2 (UniProt P29323)
Sequence (P29323 whole entry, looked up): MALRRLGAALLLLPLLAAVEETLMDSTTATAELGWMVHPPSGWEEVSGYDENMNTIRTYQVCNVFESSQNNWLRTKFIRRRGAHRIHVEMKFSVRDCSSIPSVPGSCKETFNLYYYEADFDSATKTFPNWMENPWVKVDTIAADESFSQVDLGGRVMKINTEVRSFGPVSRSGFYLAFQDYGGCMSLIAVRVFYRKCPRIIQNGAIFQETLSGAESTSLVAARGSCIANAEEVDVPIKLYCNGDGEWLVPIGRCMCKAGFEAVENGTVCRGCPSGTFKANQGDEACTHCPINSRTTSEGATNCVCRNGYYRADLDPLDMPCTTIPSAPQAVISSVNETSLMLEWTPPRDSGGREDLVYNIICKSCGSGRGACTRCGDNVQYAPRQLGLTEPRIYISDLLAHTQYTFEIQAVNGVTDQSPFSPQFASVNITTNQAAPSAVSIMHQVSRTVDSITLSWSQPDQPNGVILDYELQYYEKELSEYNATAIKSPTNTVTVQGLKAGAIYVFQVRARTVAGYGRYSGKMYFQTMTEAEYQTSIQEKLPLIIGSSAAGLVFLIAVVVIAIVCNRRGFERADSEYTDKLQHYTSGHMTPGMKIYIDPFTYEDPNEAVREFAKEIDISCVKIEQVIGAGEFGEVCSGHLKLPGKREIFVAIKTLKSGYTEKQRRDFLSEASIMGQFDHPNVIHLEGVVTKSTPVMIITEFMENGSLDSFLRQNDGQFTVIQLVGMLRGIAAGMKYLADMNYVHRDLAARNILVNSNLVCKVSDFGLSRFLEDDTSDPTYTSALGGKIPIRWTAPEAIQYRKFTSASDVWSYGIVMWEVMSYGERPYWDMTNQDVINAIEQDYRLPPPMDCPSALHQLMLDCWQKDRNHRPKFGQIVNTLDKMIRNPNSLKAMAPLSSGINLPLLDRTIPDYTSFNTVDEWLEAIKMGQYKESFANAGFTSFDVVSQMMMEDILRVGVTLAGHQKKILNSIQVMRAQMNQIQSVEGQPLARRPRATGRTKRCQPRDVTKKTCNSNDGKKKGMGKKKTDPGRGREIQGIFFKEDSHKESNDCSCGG
Assay: phosphorylation enrichment, bacterial display (enrichment ratio); higher = better substrate or ligand; peptides without Tyr show the background
QUANTITY_MEASURED: phosphorylation enrichment

Would you please look over these solved cases?
SEQUENCE_INPUT	phosphorylation enrichment
IFLGAYDRFLP [SLC22A5_Y486_V481I_YF]	1.41
ASELGYQFQAI [UROD_Y133_V134Q]	0.5
YGAHKYHPLPV [OAT_Y55_N54K]	0.39
DLDFTYIFPNI [PTEN_Y27_L25F_YF]	0.618
ADAHHYLCKEV [JAK2_Y382]	0.752
DFPIGYPSYLA [TBCK_Y153]	0.457

Please turn your attention to the following entry.
Query: So what's the measured phosphorylation enrichment for this one? ADGLEYPRTGL [MMUT_Y287_S288P]
Reply: 0.55

* * *

Tested on: Fer (mouse)
Test: phosphorylation enrichment, bacterial display (enrichment ratio); higher = better substrate or ligand; peptides without Tyr show the background
# phosphorylation enrichment listing for each entry below
Hey, just send me the number, nothing else.

Would you please look over these solved cases?
SEQUENCE_INPUT	phosphorylation enrichment
LSSVSYVGCSL [ADGRD1_Y571_I569V]	0.98
SKDQICPMKLK [RANBP17_Y823_Y823C]	0.614
MARDISRASYY [ALK_Y1278_Y1278S]	0.33

Query: Tell me reported phosphorylation enrichment for KLQKKYGPIYS [CYP17A1_Y60] , tested with Fer (mouse).
Reply: 0.39

* * *

Target: Hck (UniProt P08631)
Assay: phosphorylation enrichment, bacterial display (enrichment ratio); higher = better substrate or ligand; peptides without Tyr show the background
QUANTITY_MEASURED: phosphorylation enrichment
Hey, just send me the number, nothing else.

Would you please look over these solved cases?
SEQUENCE_INPUT	phosphorylation enrichment
SVTCTYYPALN [TP53_Y126_S127Y]	0.592
RFMELYDLNRD [BBS2_Y648_YF]	1.14
EYLHKYKGFKI [SYNE1_Y6953_Q6951H]	0.437
QMVRMYASSYM [AVPR2_Y124_G122R]	0.621
KLQKKYGPIFS [CYP17A1_Y60_YF]	0.383
DFTSRYLNASD [PKHD1_Y828]	0.47

Query: Tell me reported phosphorylation enrichment for KPGLKYVTYGN [GALNTL5_Y404] , tested with Hck (UniProt P08631).
Reply: 0.484

Query: Tell me reported phosphorylation enrichment for GLGVTYEQALA [MAP2_Y996] , tested with Hck (UniProt P08631).
Reply: 0.439

Query: Tell me reported phosphorylation enrichment for FEGRSYSACTT [MMP9_Y241] , tested with Hck (UniProt P08631).
Reply: 0.557

Query: Tell me reported phosphorylation enrichment for AFDNLYYWDQD [ERBB2_Y1221] , tested with Hck (UniProt P08631).
Reply: 5.36

Query: Tell me reported phosphorylation enrichment for EDGRLYAVKRS [PKMYT1_Y136] , tested with Hck (UniProt P08631).
Reply: 0.612

Query: Tell me reported phosphorylation enrichment for TDTQLYGRFGS [ITGA2B_Y384_G380D] , tested with Hck (UniProt P08631).
Reply: 9.16

Query: Tell me reported phosphorylation enrichment for SHGQDYLAGNK [GSTA2_Y147_V149A] , tested with Hck (UniProt P08631).
Reply: 0.364

Query: Tell me reported phosphorylation enrichment for ADLVQYFMEHH [PTPN11_Y80_E76D_YF] , tested with Hck (UniProt P08631).
Reply: 0.53

Query: Tell me reported phosphorylation enrichment for ARKWGYTVKGI [OAT_Y158] , tested with Hck (UniProt P08631).
Reply: 0.354

Query: Tell me reported phosphorylation enrichment for TSEASYYKSLN [NGEF_Y288] , tested with Hck (UniProt P08631).
Reply: 0.407

Query: Tell me reported phosphorylation enrichment for QMQNPYSSHSS [MUC13_Y501_R503S] , tested with Hck (UniProt P08631).
Reply: 0.449

Query: Tell me reported phosphorylation enrichment for KNRDVYSSDYF [USP24_Y2134] , tested with Hck (UniProt P08631).
Reply: 1

Query: Tell me reported phosphorylation enrichment for KLPYLYDDPFS [GPX2_Y127_P126L] , tested with Hck (UniProt P08631).
Reply: 1.46

Query: Tell me reported phosphorylation enrichment for TGILLHGLASR [QARS1_Y57_Y57H] , tested with Hck (UniProt P08631).
Reply: 0.301

Query: Tell me reported phosphorylation enrichment for PLLLSYFLIKW [NUP160_Y773_YF] , tested with Hck (UniProt P08631).
Reply: 0.761

Query: Tell me reported phosphorylation enrichment for KLKRSYPSPDI [USP8_Y717_S718P] , tested with Hck (UniProt P08631).
Reply: 0.381

Query: Tell me reported phosphorylation enrichment for TMETKYDNISR [SETDB2_Y477_V473M] , tested with Hck (UniProt P08631).
Reply: 0.431

FYI, the data here is from the supplement of paper PMC10065799.
